system.tested: T1, chimeric construct (CHIM) (human)
T1 construct: CEACAM6 AA 1-273 joined to the membrane-peripheral region containing domain B3 of CEA (AA 596-687), C-terminal 6xHis; also called chimeric CEA
T1 chain: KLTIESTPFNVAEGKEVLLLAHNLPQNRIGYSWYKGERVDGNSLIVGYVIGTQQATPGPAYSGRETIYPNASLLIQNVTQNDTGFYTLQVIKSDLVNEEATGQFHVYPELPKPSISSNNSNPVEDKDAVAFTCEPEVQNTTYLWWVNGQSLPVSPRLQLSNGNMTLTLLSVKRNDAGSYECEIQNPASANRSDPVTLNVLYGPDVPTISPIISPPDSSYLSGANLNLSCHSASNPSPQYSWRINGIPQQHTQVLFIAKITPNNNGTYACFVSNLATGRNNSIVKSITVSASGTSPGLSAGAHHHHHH
experiment: SPR; binding to CHIM
Reported Kd by item:
readout.kind: Kd (nM)

BGA0089 (antibody, human IgG1, V domains shown, Built on the BGA7592-1F-ph-M (BGA2433) template; human IgG1/kappa) VH: QVQLVQSGAEVKKPGASVKVSCKASGYIFTSYWLHWVRQAPGQGLEWIGYINPQTGYTNYAQKFQGRVTMTRDTSTSTVYMELSSLRSEDTAVYYCAREYGNYNYPLDYWGQGTLVTVSS VL: DIQMTQSPSSLSASVGDRVTITCRASENQYGYLAWYQQKPGKVPKLLIYNTKNLVEGVPSRFSGSGSGTDFTLTISSLQPEDVATYYCQHHLGTPYTFGQGTKVEIK : 21.5
BGA8179 (antibody, human IgG1, V domains shown, Built on the BGA7592-1F-ph-M (BGA2433) template; human IgG1/kappa) VH: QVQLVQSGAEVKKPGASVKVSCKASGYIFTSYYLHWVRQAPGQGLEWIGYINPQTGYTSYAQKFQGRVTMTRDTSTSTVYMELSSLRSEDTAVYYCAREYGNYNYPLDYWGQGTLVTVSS VL: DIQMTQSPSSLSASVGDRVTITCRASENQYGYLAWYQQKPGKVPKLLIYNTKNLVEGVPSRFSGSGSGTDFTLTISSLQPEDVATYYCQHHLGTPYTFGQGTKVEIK : 14.2
BGA7592-1F-ph-M (antibody, human IgG1, V domains shown, human IgG1/kappa; also called BGA2433) VH: QVQLVQSGAEVKKPGASVKVSCKASGYIFTSYWLHWVRQAPGQGLEWIGYINPQTGYTSYAQKFQGRVTMTRDTSTSTVYMELSSLRSEDTAVYYCAREYGNYNYPLDYWGQGTLVTVSS VL: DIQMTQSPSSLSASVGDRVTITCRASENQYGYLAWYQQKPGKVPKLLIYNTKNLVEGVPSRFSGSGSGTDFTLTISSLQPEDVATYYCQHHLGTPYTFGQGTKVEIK : 12.6

# credit: patent US20250115677A1
